Tested on: KM12
PROCEDURE TEXT: NCI 60 cell line panel screen (SRB)
Type: cell-based, human
ASSAY CONDITIONS: KM12 (Colon Cancer); TGI: PG=0
Below, each entry is listed with its recorded Log10TGI50.
Expressed in log10M, but write only the number.

These recorded examples may help you get a feel for the data.
MOLECULE	SYSTEM NAME	Log10TGI50, log10M
CC1CCC2C(C)C(CC(O)(CO)CC3OC4OC5(C)CCC6C(C)CCC(C3C)C46OO5)OC3OC4(C)CCC1C32OO4 (stereo not shown)	KM12	−4.47
CC1CCC2C(C)C(CC(CO)CC3OC4OC5(C)CCC6C(C)CCC(C3C)C46OO5)OC3OC4(C)CCC1C32OO4 (stereo not shown)	KM12	−4.79
CC(=O)O[C@H]1C(=O)[C@@]2(C)[C@H]([C@H](OC(=O)c3ccccc3)[C@]3(O)C[C@H](OC(=O)[C@H](O)[C@@H](NC(=O)c4ccccc4)c4ccccc4)C(C)=C1C3(C)C)[C@]1(OC(C)=O)CO[C@@H]1C[C@@H]2O [Paclitaxel, paclitaxel, reference compound]	KM12	−4.36

Identify the reported Log10TGI50 for the following entry. CC1CCC2C(C)C(CC(COC(=O)c3cc[n+]([O-])cc3)CC3OC4OC5(C)CCC6C(C)CCC(C3C)C46OO5)OC3OC4(C)CCC1C32OO4 (stereo not shown)
−5.04
